Molecular target: Cruzipain (Trypanosoma cruzi)
Assay: Confirmation qHTS Assay for Inhibitors of Cruzain; also: nearly all actives have a fitted effect of over 40% in size; also: potency is read from the fitted curve at half-maximal effect
Conditions: purified cruzain, Z-FR-AMC fluorescence, 0.01% Triton
Inconclusive results are not listed. Activity calls are given as the source filed them. Calls follow the shape of the dose curve; as a rule, active = well fitted inhibition curve with a large enough effect; inconclusive = small, poorly fitted or top-dose-only effect; inactive = no such curve, though single readings can be large or run the other way.
Property name: Potency

Task: Record lookup: for Cruzipain (Trypanosoma cruzi), what Potency belongs to `CNc1oc(Cc2ccccc2)nc1S(=O)(=O)c1ccc(Cl)cc1` ?
Output: 25.1 µM (active)

Task: Record lookup: for Cruzipain (Trypanosoma cruzi), what Potency belongs to `Cc1ccc(OCCn2c(CCNC(=O)C3CCCCC3)nc3ccccc32)cc1` ?
Output: 0.1 µM (active)

Task: Record lookup: for Cruzipain (Trypanosoma cruzi), what Potency belongs to CC(C)CC(OC(=O)CNC(=O)c1ccccc1)C(=O)Nc1cc(C(F)(F)F)ccc1Cl (stereo not given) ?
Output: 7.94 µM (active)

Task: Record lookup: for Cruzipain (Trypanosoma cruzi), what Potency belongs to COc1ccc(OC)c(NC(=O)C(OC(=O)CNC(=O)c2ccccc2)c2ccccc2)c1 (stereo not given) ?
Output: 11.2 µM (active)

Task: Record lookup: for Cruzipain (Trypanosoma cruzi), what Potency belongs to COc1cc(Cl)c(C)cc1NC(=O)C(OC(=O)CNC(=O)c1ccccc1)c1ccccc1 (stereo not given) ?
Output: 31.6 µM (active)

====

Please provide measured Potency for the entries that follow.
Target: Cruzipain (Trypanosoma cruzi) (UniProt P25779)
Sequence (P25779 123-467 limits assumed): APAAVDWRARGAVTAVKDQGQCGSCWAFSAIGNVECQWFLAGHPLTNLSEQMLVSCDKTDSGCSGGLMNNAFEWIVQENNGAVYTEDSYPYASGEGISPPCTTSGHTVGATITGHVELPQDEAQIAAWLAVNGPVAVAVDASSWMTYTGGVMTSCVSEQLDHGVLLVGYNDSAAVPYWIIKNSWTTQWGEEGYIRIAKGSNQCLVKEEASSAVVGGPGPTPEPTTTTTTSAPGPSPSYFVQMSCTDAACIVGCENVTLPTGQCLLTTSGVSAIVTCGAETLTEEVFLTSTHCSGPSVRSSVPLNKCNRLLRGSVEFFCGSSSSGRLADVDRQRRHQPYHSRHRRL
Assay: Confirmation qHTS Assay for Inhibitors of Cruzain; also: nearly all actives have a fitted effect of over 40% in size; also: potency is read from the fitted curve at half-maximal effect
Conditions: purified cruzain, Z-FR-AMC fluorescence, 0.01% Triton
Inconclusive results are not listed. Calls of active or inactive are those of the source. The call rests on the fitted dose curve; in most records, active means well fitted inhibition curve with a large enough effect; inconclusive means small, poorly fitted or top-dose-only effect; inactive means no such curve, though single readings can be large or run the other way.

Task: Potency for `COc1ccccc1OCCCn1c(CCNC(=O)C2CCCCC2)nc2ccccc21` ?
Output: 708 nM (active)

Task: Potency for COc1ccc(NC(=O)C(OC(=O)CNC(=O)c2ccccc2)c2ccccc2)cc1Cl (stereo not given) ?
Output: 12600 nM (active)

Task: Potency for `O=C(COC(=O)CNC(=O)C1CCCCC1)Nc1cc(C(F)(F)F)ccc1Cl` ?
Output: 2820 nM (active)

Task: Potency for `CCc1ccc(OCCCn2c(CCNC(=O)C3CCCCC3)nc3ccccc32)cc1` ?
Output: 1410 nM (active)

Task: Potency for `COc1cccc2c1[C@@H]1CN(CCCCn3c(=O)[nH]c4c(sc5ncc(-c6ccccc6)nc54)c3=O)C[C@@H]1CO2` ?
Output: 15800 nM (active)

====

Please provide measured activity change, negative = inhibition for the entries that follow.
Target: Cruzipain (Trypanosoma cruzi) (UniProt P25779)
Experiment: Confirmation qHTS Assay for Inhibitors of Cruzain; also: nearly all actives have a fitted effect of over 40% in size;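 as to activity change, negative = inhibition: plate controls were uninhibited enzyme control for no effect and buffer wells lacking enzyme for full effect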
Conditions: purified cruzain, Z-FR-AMC fluorescence, 0.01% Triton
Records with an inconclusive call do not appear.
Please respond with the number in % and leave the unit unwritten.

Task: activity change, negative = inhibition for `O=C(CNC(=O)c1ccccc1)NCC(=O)OCC(=O)c1cccc2ccccc12` ?
Output: -13.9

Task: activity change, negative = inhibition for `O=C(NNC(=O)c1nc2ccccc2[nH]1)OCc1ccccc1` ?
Output: -7.65

Task: activity change, negative = inhibition for `O=C(O)Cc1nnc(-c2cc3ccccc3[nH]2)s1` ?
Output: 10.6

Task: activity change, negative = inhibition for O=C(Nc1cc(C(F)(F)F)ccc1Cl)C(O)Cc1ccccc1 (stereo unspecified) ?
Output: -18.4

Task: activity change, negative = inhibition for `Cc1ccccc1OCC(=O)NCC(=O)OCC(=O)c1ccc(-c2ccccc2)cc1` ?
Output: -15.9

Task: activity change, negative = inhibition for `O=C(Nc1ccc(-n2nncc2-c2ccccc2)cc1)c1ccccc1` ?
Output: -9.78

Task: activity change, negative = inhibition for `COc1ccc(-c2cc(C#N)nc(N3CCN(C)CC3)n2)cc1` ?
Output: -11.8

Task: activity change, negative = inhibition for `C[C@H](CCC(=O)O)[C@H]1CC[C@@H]2[C@@H]3[C@@H](O)C[C@H]4C[C@@H](O)CC[C@@]4(C)[C@H]3CC[C@@]21C` ?
Output: 2.73

Task: activity change, negative = inhibition for `N#CCSc1nc2scc(-c3cccs3)c2c(=O)n1CCc1ccccc1` ?
Output: -7.68

Task: activity change, negative = inhibition for `CCc1ccc(NC(=O)Cn2c(SCc3ccc(C)cc3)nc3ccncc32)cc1` ?
Output: -7.51

Task: activity change, negative = inhibition for `CCOc1cccc(-c2nn3c(-c4cc(C)[nH]n4)nnc3s2)c1` ?
Output: -3.99

Task: activity change, negative = inhibition for `Cc1ccc(OCCNC(=O)CNC(=O)Cc2cccc3ccccc23)cc1` ?
Output: -1.3

Task: activity change, negative = inhibition for `Cc1cc(OCC(=O)Nc2ccc(N3CCCC3)cc2)cc(C)c1Cl` ?
Output: -30.4

Task: activity change, negative = inhibition for `CCSc1nnc(NC(=O)/C=C/c2ccc3c(c2)OCO3)s1` ?
Output: -48.4

Task: activity change, negative = inhibition for `CCOc1ccc(CN2C(=O)c3ccccc3Sc3ccc(C(=O)NCc4ccc(C)cc4)cc32)cc1` ?
Output: 0.925

Task: activity change, negative = inhibition for `O=[S+]([O-])(/C=C/c1nc(Nc2cc(F)cc(F)c2)c2ncn(CC(F)F)c2n1)c1ccccc1` ?
Output: -11.8

Task: activity change, negative = inhibition for `O=C(c1ccc(OCCN2CCCCC2)cc1)c1c(-c2ccc(O)cc2)sc2cc(O)ccc12` ?
Output: -21.2

Task: activity change, negative = inhibition for `CNC(=O)c1ccc2nc(-c3cccc(C)c3)c(-c3cccc(C)c3)nc2c1` ?
Output: -24.1

Task: activity change, negative = inhibition for `Cc1oc(=O)c(NC(=O)c2cccc(Cl)c2)cc1C(=O)c1ccccc1` ?
Output: -24.6

Task: activity change, negative = inhibition for `O=C(NCc1ccc2c(c1)OCO2)c1ccc2c(c1)N(Cc1cccc(Cl)c1)C(=O)c1ccccc1S2` ?
Output: 3.57

Task: activity change, negative = inhibition for `O=C(Cn1cc(CN(Cc2ccccc2)Cc2ccccc2)nn1)Nc1cc(C(F)(F)F)ccc1Cl` ?
Output: -13.2
